test_summary: qHTS assay to test for compound auto fluorescence at 460 nm (blue) in HepG2 cells (AID 720687)
experimental_parameters: autofluorescence 405/460 nm, 1 h; series mostly up to 46 µM
Activity calls are given as the source filed them. Calls come from the whole dose curve; as a rule, active = well fitted curve in the direction sought with a large enough effect in the repeat runs; inconclusive = weak or mixed curves; inactive = flat fitted curve, though single readings scatter.
Your reply should match one of these outcome classes. active, inactive

Record excerpt, results attached:
INSERT INTO measurements (compound, answer_label) VALUES
  ('Cc1cc(CC(C)CC(C)(C)C)n(O)c(=O)c1 (centres undefined) (tested in a mixture with another compound)', 'inactive'),
  ('CC(C)(COP(=O)(O)OP(=O)(O)OC[C@H]1O[C@@H](n2cnc3c(N)ncnc32)[C@H](O)[C@@H]1OP(=O)(O)O)C(O)C(=O)NCCC(=O)NCCS (some centres undefined)', 'inactive'),
  ('NC(=S)NS(=O)(=O)c1ccc(N)cc1', 'inactive'),
  ('CCCCCCCCCCCCN1CCCC1=O', 'inactive'),
  ('CC(C)(S)C(=O)N[C@@H](CS)C(=O)O', 'inactive');

Dear colleague, could you share the recorded outcome for COc1cc(/C=C/C(=O)CC(=O)/C=C/c2ccc(O)c(OC)c2)ccc1O when you have a moment?
active

Same lookup for Cc1cnc(C(=O)O)c[n+]1[O-] , please.
inactive

Request: O=C(N[C@H](CO)[C@H](O)c1ccc([N+](=O)[O-])cc1)C(Cl)Cl
inactive

---

tgt: Estrogen receptor beta (Homo sapiens)
test_summary: qHTS assay to identify small molecule antagonists of the estrogen receptor beta (ER-beta) signaling pathway (AID 1259378)
experimental_parameters: ER-beta-UAS-bla HEK293T, beta-lactamase FRET ratio, 16 h; series mostly up to 92.4 µM
Source text: National Center for Advancing Translational Sciences [NCATS] NIH Chemical Genomics Center [NCGC] U.S. Environmental Protection Agency [EPA] National Institutes of Environmental Health Sciences [NIEHS] National Toxicology Program [NTP] U.S. Food and Drug Administration [FDA] Estrogen receptor (ER), a nuclear hormone receptor, plays an important role in development, metabolic homeostasis and reproduction. […]
Inconclusive results are not listed. Active and inactive are the calls of the source. Calls follow the shape of the dose curve; as a rule, active = well fitted inhibition curve with a large enough effect in the signal ratio in the repeat runs (not every such curve was filed as active); inconclusive = weak or mixed curves, or effect the other way; inactive = no such curve, though single readings can be large or run the other way; the % refers to the signal ratio.
Use one of these outcomes when replying: Yes (active), No (inactive)

The examples below pair each entry with its known result.
INSERT INTO measurements (compound, answer_label) VALUES
  ('CCNc1nc(NC(C)(C)C)nc(OC)n1', 'No'),
  ('C=C1C(CCl)(CCl)C2(Cl)C(Cl)C(Cl)C1(Cl)C2(Cl)Cl (configuration not stated)', 'Yes'),
  ('CCOC(=O)[C@H](O)[C@@H](O)C(=O)OCC', 'No'),
  ('CCN(CC)c1ccc(C=O)cc1', 'No');

How did this test come out for COc1cc(OC)nc(NC(=O)NS(=O)(=O)Nc2ccccc2C(=O)N(C)C)n1 ?
No

Could you do the same for O=C1C=CC(=O)N1c1cccc(N2C(=O)C=CC2=O)c1 , please?
Yes

Please answer likewise for Cc1ccc2sc3cccc(C)c3c2c1
No

Please answer likewise for CCCCCCCCCCCCCCCCC(C(=O)O)C(O)(CC(=O)O)C(=O)O (configuration not stated)
No

Now this one: CCC1(C)C(=O)N(Cl)C(=O)N1Cl (configuration not stated)
No

And O=C(Nc1ccc([N+](=O)[O-])cc1)Nc1ccc([N+](=O)[O-])cc1 (tested in a mixture with another compound) ?
No

Here is the next compound: C=CC(=O)O[C@H]1C[C@@H]2CC[C@@]1(C)C2(C)C
No

Same for CCOC(=O)[C@H](C)O
No
